This collection of values is drawn from patent US12516022B2.

Run description: Stability of indirubin prodrugs in simulated fluids (FaSSIF, FaSSGF), 24 h at 37° C., UPLC-MS
Type: physicochemical
Experimental parameters: FaSSGF 37° C. 24 h
Experimental: 10.41 g fasted state simulated intestinal fluid (FaSSIF) buffer concentrate was dissolved in 240.3 g deionized water and 560 mg FaSSIF powder added. The mixture was stirred until complete dissolution observed. The test compound (approx. 1-3 mg) was placed in 5.00 mL of FaSSIF solution. Samples of the solution with the test compound were taken after 24 hours in at 37° C. (oven-controlled temperature). […]
This section presents molecules with their documented Fraction (percent) of indirubin values.

# Molecule, Fraction (percent) of indirubin / %
records = [
    ("O=C1/C(=C2/C(=O)N(C(=O)NC3CCOCC3)c3ccccc32)Nc2ccccc21 [drawing 236]", 13),
    ("CCOC(=O)N1C(=O)/C(=C2\\Nc3ccccc3C2=O)c2ccccc21", 0),
    ("O=C1/C(=C2/C(=O)N(C(=O)NCCNS(=O)(=O)C(F)(F)F)c3ccccc32)Nc2ccccc21", 1),
    ("COCN1C(=O)/C(=C2\\Nc3ccccc3C2=O)c2ccccc21", 2),
    ("O=C1Nc2ccccc2/C1=C1/Nc2ccccc2/C1=N\\O", 0),
    ("CCN(CC)CN1C(=O)/C(=C2\\Nc3ccccc3C2=O)c2ccccc21 [drawing 221]", 100),
    ("O=C1/C(=C2/C(=O)N(CO)c3ccccc32)Nc2ccccc21 [drawing 219]", 13),
    ("O=C1/C(=C2/C(=O)N(C(=O)N3CCOCC3)c3ccccc32)Nc2ccccc21", 0),
    ("Cl.NCCNC(=O)N1C(=O)/C(=C2\\Nc3ccccc3C2=O)c2ccccc21", 0),
    ("O=C1/C(=C2/C(=O)N(C(=O)NCCNS(=O)(=O)c3ccc([N+](=O)[O-])cc3)c3ccccc32)Nc2ccccc21", 0),
]

* * *

Run description: Time course of conversion to indirubin in FaSSGF at 37° C.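 Note: compound incubated in fasted state simulated gastric fluid, species in samples quantified by UPLC-MS with UV (210–400 nm) and ELS detection.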
Format: physicochemical
Experimental parameters: FaSSGF (Example 4; table title prints FaSSIF) 37° C., 1 h
This section presents compounds with their documented indirubin methylene alcohol values.

# Compound, Value unit, indirubin methylene alcohol
records = [
    ("CNCCNC(=O)N1C(=O)/C(=C2\\Nc3ccccc3C2=O)c2ccccc21.Cl [drawing 279]", "%", 0),
    ("O=C1/C(=C2/C(=O)N(CN3CCCC3)c3ccccc32)Nc2ccccc21 [drawing 270]", "%", 0),
    ("O=C1/C(=C2/C(=O)N(CO)c3ccccc32)Nc2ccccc21 [drawing 274]", "%", 88),
    ("O=C1/C(=C2/C(=O)N(CN3CCOCC3)c3ccccc32)Nc2ccccc21 [drawing 276]", "%", 5),
    ("O=C1/C(=C2/C(=O)N(C(=O)NC3CCOCC3)c3ccccc32)Nc2ccccc21 [drawing 278]", "%", 0),
    ("CN(C)CCN(C)CN1C(=O)/C(=C2\\Nc3ccccc3C2=O)c2ccccc21 [drawing 268]", "%", 7),
    ("CN(C)C1CCN(CN2C(=O)/C(=C3\\Nc4ccccc4C3=O)c3ccccc32)CC1 [drawing 272]", "%", 10),
    ("CCN(CC)CN1C(=O)/C(=C2\\Nc3ccccc3C2=O)c2ccccc21 [drawing 267]", "%", 0),
    ("CN(C)CCN(CCN(C)C)CN1C(=O)/C(=C2\\Nc3ccccc3C2=O)c2ccccc21 [drawing 271]", "%", 9),
]

* * *

This section presents compounds with their documented Conversion to indirubin values.
Run description: Time course of conversion to indirubin in FaSSIF at 37° C.
Assay type: physicochemical
Experimental parameters: FaSSIF 37° C., over a 24 hour period

# Compound, Conversion to indirubin
rows = [
    ("CN1CCN(CN2C(=O)/C(=C3\\Nc4ccccc4C3=O)c3ccccc32)CC1 [drawing 265]", "0-20%"),
    ("CC(=O)N1CCN(CN2C(=O)/C(=C3\\Nc4ccccc4C3=O)c3ccccc32)CC1 [drawing 258]", "40-60%"),
    ("CN(C)C1CCN(CN2C(=O)/C(=C3\\Nc4ccccc4C3=O)c3ccccc32)CC1 [drawing 256]", "60-80%"),
    ("O=C1/C(=C2/C(=O)N(CN3CCC3)c3ccccc32)Nc2ccccc21 [drawing 266]", "0-20%"),
    ("O=C1/C(=C2/C(=O)N(CN3CCCC3)c3ccccc32)Nc2ccccc21 [drawing 255]", "80-100%"),
    ("O=C1/C(=C2/C(=O)N(CN3CCC(F)(F)CC3)c3ccccc32)Nc2ccccc21 [drawing 260]", "20-40%"),
    ("O=C1/C(=C2/C(=O)N(C(=O)NC3CCOCC3)c3ccccc32)Nc2ccccc21 [drawing 263]", "0-20%"),
    ("CN(C)CCN(C)CN1C(=O)/C(=C2\\Nc3ccccc3C2=O)c2ccccc21 [drawing 253]", "80-100%"),
    ("O=C1/C(=C2/C(=O)N(COS(=O)(=O)O)c3ccccc32)Nc2ccccc21 [drawing 262]", "0-20%"),
    ("O=C1/C(=C2/C(=O)N(CN3CCOCC3)c3ccccc32)Nc2ccccc21 [drawing 261]", "20-40%"),
    ("CCN(CC)CN1C(=O)/C(=C2\\Nc3ccccc3C2=O)c2ccccc21 [drawing 252]", "80-100%"),
    ("CN(C)CCN(CCN(C)C)CN1C(=O)/C(=C2\\Nc3ccccc3C2=O)c2ccccc21 [drawing 257]", "60-80%"),
    ("CNCCNC(=O)N1C(=O)/C(=C2\\Nc3ccccc3C2=O)c2ccccc21.Cl [drawing 264]", "0-20%"),
    ("O=C1/C(=C2/C(=O)N(CN3CCCCC3)c3ccccc32)Nc2ccccc21 [drawing 254]", "80-100%"),
    ("O=C1/C(=C2/C(=O)N(CO)c3ccccc32)Nc2ccccc21 [drawing 259]", "20-40%"),
]

* * *

This section presents compounds with their documented indirubin values.
Run description: Time course of conversion to indirubin in FaSSIF at 37° C.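 Note: test compound, about 1-3 mg in 5 mL FaSSIF, sampled and analysed by UPLC-MS with PDA UV (210-400 nm), QDa mass and evaporative light scattering detection.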
Assay type: physicochemical
Experimental parameters: FaSSIF 37° C., 30 min

# Compound, indirubin / %
measured = [
    ("O=C1/C(=C2/C(=O)N(CN3CCCC3)c3ccccc32)Nc2ccccc21 [drawing 255]", 100),
    ("O=C1/C(=C2/C(=O)N(CN3CCC3)c3ccccc32)Nc2ccccc21 [drawing 266]", 8),
    ("CN(C)C1CCN(CN2C(=O)/C(=C3\\Nc4ccccc4C3=O)c3ccccc32)CC1 [drawing 256]", 62),
    ("CCN(CC)CN1C(=O)/C(=C2\\Nc3ccccc3C2=O)c2ccccc21 [drawing 252]", 100),
    ("CNCCNC(=O)N1C(=O)/C(=C2\\Nc3ccccc3C2=O)c2ccccc21.Cl [drawing 264]", 0),
    ("O=C1/C(=C2/C(=O)N(CN3CCOCC3)c3ccccc32)Nc2ccccc21 [drawing 261]", 8),
    ("O=C1/C(=C2/C(=O)N(COS(=O)(=O)O)c3ccccc32)Nc2ccccc21 [drawing 262]", 14),
    ("CN(C)CCN(C)CN1C(=O)/C(=C2\\Nc3ccccc3C2=O)c2ccccc21 [drawing 253]", 90),
    ("O=C1/C(=C2/C(=O)N(C(=O)NC3CCOCC3)c3ccccc32)Nc2ccccc21 [drawing 263]", 5),
    ("CN(C)CCN(CCN(C)C)CN1C(=O)/C(=C2\\Nc3ccccc3C2=O)c2ccccc21 [drawing 257]", 78),
    ("CC(=O)N1CCN(CN2C(=O)/C(=C3\\Nc4ccccc4C3=O)c3ccccc32)CC1 [drawing 258]", 12),
    ("O=C1/C(=C2/C(=O)N(CO)c3ccccc32)Nc2ccccc21 [drawing 259]", 15),
    ("O=C1/C(=C2/C(=O)N(CN3CCC(F)(F)CC3)c3ccccc32)Nc2ccccc21 [drawing 260]", 29),
    ("CN1CCN(CN2C(=O)/C(=C3\\Nc4ccccc4C3=O)c3ccccc32)CC1 [drawing 265]", 12),
]

* * *

Run description: Stability of indirubin prodrugs in simulated fluids (FaSSIF, FaSSGF), 24 h at 37° C., UPLC-MS
Type: physicochemical
Experimental parameters: FaSSIF 37° C. 24 h
Method: 10.41 g fasted state simulated intestinal fluid (FaSSIF) buffer concentrate was dissolved in 240.3 g deionized water and 560 mg FaSSIF powder added. The mixture was stirred until complete dissolution observed. The test compound (approx. 1-3 mg) was placed in 5.00 mL of FaSSIF solution. Samples of the solution with the test compound were taken after 24 hours in at 37° C. (oven-controlled temperature). […]

# Compound, Value unit, Fraction (percent) of indirubin
data = [
    ("Cl.NCCNC(=O)N1C(=O)/C(=C2\\Nc3ccccc3C2=O)c2ccccc21", "%", 0),
    ("CN1CCN(CN2C(=O)/C(=C3\\Nc4ccccc4C3=O)c3ccccc32)CC1 [drawing 222]", "%", 19),
    ("COCN1C(=O)/C(=C2\\Nc3ccccc3C2=O)c2ccccc21", "%", 2),
    ("CCN(CC)CN1C(=O)/C(=C2\\Nc3ccccc3C2=O)c2ccccc21 [drawing 221]", "%", 100),
    ("CCOC(=O)CCC(=O)N1C(=O)/C(=C2\\Nc3ccccc3C2=O)c2ccccc21", "%", 0),
    ("CN1CCN(CCNC(=O)N2C(=O)/C(=C3\\Nc4ccccc4C3=O)c3ccccc32)CC1", "%", 0),
    ("CC(=O)OCN1C(=O)/C(=C2\\Nc3ccccc3C2=O)c2ccccc21", "%", 0),
    ("O=C1/C(=C2/C(=O)N(COS(=O)(=O)O)c3ccccc32)Nc2ccccc21 [drawing 224]", "%", 100),
    ("O=C1/C(=C2/C(=O)N(COc3ccccc3)c3ccccc32)Nc2ccccc21", "%", 0),
    ("O=C1/C(=C2/C(=O)N(C(=O)CCCN3CCOCC3)c3ccccc32)Nc2ccccc21", "%", 0),
]
